// reported FINAL OD(550) for each item listed
- Procedure summary: Growth substrates: final OD and % removal of cis-DCE and TCE (Table 1)
- Type: cell-based
- Condition parameters: culture grown on the listed substrate
Observed property: FINAL OD(550)

{"columns": ["Molecule", "Observed measurement"],
 "data": [
  ["O=C(O)c1ccccc1 [Benzoate]", 0.24],
  ["CC(=O)O [Acetate]", 0.33],
  ["C=CC(C)O (centres unmarked)", 0.03]
]}
